assay: Inhibition of rat intestinal maltase using maltose as substrate assessed as release of D-glucose measured by spectrometric assay
Let's look at some compounds and their measured pIC50.
Scale note: pIC50 = -log10(concentration in M).

// below: answered compounds
>>> df
                                smiles_data  readout_kind  reading
0       OC[C@H]1NC[C@H](O)[C@@H](O)[C@@H]1O         pIC50     6.92
1  CCCC[C@]1(CO)NC[C@H](O)[C@@H](O)[C@@H]1O.Cl         pIC50     6.77
2  CCC[C@@]1(CO)NC[C@H](O)[C@@H](O)[C@@H]1O.Cl         pIC50     3.87
3  CCCCCC[C@]1(CO)NC[C@H](O)[C@@H](O)[C@@H]1O.Cl         pIC50     7.47

Record request: pIC50 value, item `CCCCCCCCC[C@@]1(CO)NC[C@H](O)[C@@H](O)[C@@H]1O.Cl`
5.02

Record request: pIC50 value, item `CC[C@]1(CO)NC[C@H](O)[C@@H](O)[C@@H]1O.Cl`
6.96

Record request: pIC50 value, item `CCCCCCCCCCC[C@@]1(CO)NC[C@H](O)[C@@H](O)[C@@H]1O.Cl`
3.12

Record request: pIC50 value, item `CCC[C@]1(CO)NC[C@H](O)[C@@H](O)[C@@H]1O.Cl`
7.02

Record request: pIC50 value, item `CCCCCC[C@@]1(CO)NC[C@H](O)[C@@H](O)[C@@H]1O.Cl`
3.57

Record request: pIC50 value, item `CC[C@@]1(CO)NC[C@H](O)[C@@H](O)[C@@H]1O.Cl`
5.18

Record request: pIC50 value, item `CCCCCCCCC[C@]1(CO)NC[C@H](O)[C@@H](O)[C@@H]1O.Cl`
6.92

====

species on record: Bos taurus; assay: Inhibition of bovine liver beta-galactosidase using p-nitrophenyl glycoside as substrate assessed as release of p-nitrophenol at 1000 uM measured by spectrometric assay relative to control
I would appreciate it if you labelled entries label 1 when inhibition is 20% or higher, otherwise label 0.

>>> df
                                   molecule  assigned_class
0  CC[C@]1(CO)NC[C@H](O)[C@@H](O)[C@@H]1O.Cl         label 0
1  C[C@]1(CO)NC[C@H](O)[C@@H](O)[C@@H]1O.Cl         label 0
2  C[C@@]1(CO)NC[C@H](O)[C@@H](O)[C@@H]1O.Cl         label 0
3  CCCCCCCCCCCC[C@]1(CO)NC[C@H](O)[C@@H](O)[C@@H]1O.Cl         label 1
4  CCCCCCC[C@@]1(CO)NC[C@H](O)[C@@H](O)[C@@H]1O.Cl         label 1
5  CCCCCCCC[C@@]1(CO)NC[C@H](O)[C@@H](O)[C@@H]1O.Cl         label 1
6  CC[C@@]1(CO)NC[C@H](O)[C@@H](O)[C@@H]1O.Cl         label 0
7  CCCCC[C@]1(CO)NC[C@H](O)[C@@H](O)[C@@H]1O.Cl         label 0
8  OC[C@H]1NC[C@H](O)[C@@H](O)[C@@H]1O [DUVOGLUSTAT]         label 0

Evaluate `CCCCCCCC[C@]1(CO)NC[C@H](O)[C@@H](O)[C@@H]1O.Cl` : inhibition at minimum 20%?
label 1

====

test system: Aspergillus niger; assay: Inhibition of Aspergillus niger amyloglucosidase using p-nitrophenyl glycoside as substrate assessed as release of p-nitrophenol at 1000 uM measured by spectrometric assay relative to control
READOUT_KIND: inhibition (%)
The response must be a number in % with no trailing unit.

>>> df
                                smiles_data      system_tested  reading
0  CCCCCCCCCCCC[C@@]1(CO)NC[C@H](O)[C@@H](O)[C@@H]1O.Cl  Aspergillus niger        0
1  CCC[C@@]1(CO)NC[C@H](O)[C@@H](O)[C@@H]1O.Cl  Aspergillus niger      2.3
2  CCCCCCCC[C@]1(CO)NC[C@H](O)[C@@H](O)[C@@H]1O.Cl  Aspergillus niger      5.9
3  C[C@]1(CO)NC[C@H](O)[C@@H](O)[C@@H]1O.Cl  Aspergillus niger        8
4  CCC[C@]1(CO)NC[C@H](O)[C@@H](O)[C@@H]1O.Cl  Aspergillus niger      1.9

GET /values?readout=inhibition&system=Aspergillus niger&item= `CCCCCC[C@]1(CO)NC[C@H](O)[C@@H](O)[C@@H]1O.Cl`
5.4

GET /values?readout=inhibition&system=Aspergillus niger&item= `CCCCCCCCC[C@@]1(CO)NC[C@H](O)[C@@H](O)[C@@H]1O.Cl`
2.7

GET /values?readout=inhibition&system=Aspergillus niger&item= `CCCCCCC[C@@]1(CO)NC[C@H](O)[C@@H](O)[C@@H]1O.Cl`
11.9

GET /values?readout=inhibition&system=Aspergillus niger&item= `CCCCCCCC[C@@]1(CO)NC[C@H](O)[C@@H](O)[C@@H]1O.Cl`
0.83

GET /values?readout=inhibition&system=Aspergillus niger&item= `CCCCCCCCCCC[C@@]1(CO)NC[C@H](O)[C@@H](O)[C@@H]1O.Cl`
0

====

experiment: Inhibition of jack bean alpha-mannosidase using p-nitrophenyl glycoside as substrate assessed as release of p-nitrophenol measured by spectrometric assay; parameters: species or system Canavalia ensiformis
READOUT_KIND: IC50

// below: answered compounds
In [3]: df
Out[3]:
                                   compound     reading
0  C[C@]1(CO)NC[C@H](O)[C@@H](O)[C@@H]1O.Cl  Not Active
1  CC[C@]1(CO)NC[C@H](O)[C@@H](O)[C@@H]1O.Cl  Not Active
2  OC[C@H]1NC[C@H](O)[C@@H](O)[C@@H]1O [DUVOGLUSTAT]  Not Active
3  CCCCCCCCCCC[C@@]1(CO)NC[C@H](O)[C@@H](O)[C@@H]1O.Cl  Not Active
4  CCCCCC[C@@]1(CO)NC[C@H](O)[C@@H](O)[C@@H]1O.Cl  Not Active

Record request: IC50 value, item `CCC[C@@]1(CO)NC[C@H](O)[C@@H](O)[C@@H]1O.Cl`
Not Active

Record request: IC50 value, item `CCCCCCCC[C@@]1(CO)NC[C@H](O)[C@@H](O)[C@@H]1O.Cl`
Not Active

Record request: IC50 value, item `CCCCCCCCC[C@]1(CO)NC[C@H](O)[C@@H](O)[C@@H]1O.Cl`
Not Active

Record request: IC50 value, item `CCCCCCCCCCCC[C@@]1(CO)NC[C@H](O)[C@@H](O)[C@@H]1O.Cl`
Not Active

Record request: IC50 value, item `CCCCC[C@@]1(CO)NC[C@H](O)[C@@H](O)[C@@H]1O.Cl`
Not Active

Record request: IC50 value, item `CCCCCCC[C@]1(CO)NC[C@H](O)[C@@H](O)[C@@H]1O.Cl`
Not Active

Record request: IC50 value, item `CCCCCCCCCCCC[C@]1(CO)NC[C@H](O)[C@@H](O)[C@@H]1O.Cl`
Not Active

Record request: IC50 value, item `CCCCCCCCC[C@@]1(CO)NC[C@H](O)[C@@H](O)[C@@H]1O.Cl`
Not Active

Record request: IC50 value, item `CCCC[C@]1(CO)NC[C@H](O)[C@@H](O)[C@@H]1O.Cl`
Not Active

Record request: IC50 value, item `CCC[C@]1(CO)NC[C@H](O)[C@@H](O)[C@@H]1O.Cl`
Not Active

Record request: IC50 value, item `CCCCCCCCCCC[C@]1(CO)NC[C@H](O)[C@@H](O)[C@@H]1O.Cl`
Not Active

Record request: IC50 value, item `CCCCCCCCCC[C@]1(CO)NC[C@H](O)[C@@H](O)[C@@H]1O.Cl`
Not Active

Record request: IC50 value, item `CCCCCCC[C@@]1(CO)NC[C@H](O)[C@@H](O)[C@@H]1O.Cl`
Not Active

Record request: IC50 value, item `CCCCCCCCCC[C@@]1(CO)NC[C@H](O)[C@@H](O)[C@@H]1O.Cl`
Not Active

Record request: IC50 value, item `CCCCCCCC[C@]1(CO)NC[C@H](O)[C@@H](O)[C@@H]1O.Cl`
Not Active

Record request: IC50 value, item `CCCCC[C@]1(CO)NC[C@H](O)[C@@H](O)[C@@H]1O.Cl`
Not Active
